targetDesc: Beta-1 adrenergic receptor (Homo sapiens, UniProt P08588)
Sequence (P08588 whole entry): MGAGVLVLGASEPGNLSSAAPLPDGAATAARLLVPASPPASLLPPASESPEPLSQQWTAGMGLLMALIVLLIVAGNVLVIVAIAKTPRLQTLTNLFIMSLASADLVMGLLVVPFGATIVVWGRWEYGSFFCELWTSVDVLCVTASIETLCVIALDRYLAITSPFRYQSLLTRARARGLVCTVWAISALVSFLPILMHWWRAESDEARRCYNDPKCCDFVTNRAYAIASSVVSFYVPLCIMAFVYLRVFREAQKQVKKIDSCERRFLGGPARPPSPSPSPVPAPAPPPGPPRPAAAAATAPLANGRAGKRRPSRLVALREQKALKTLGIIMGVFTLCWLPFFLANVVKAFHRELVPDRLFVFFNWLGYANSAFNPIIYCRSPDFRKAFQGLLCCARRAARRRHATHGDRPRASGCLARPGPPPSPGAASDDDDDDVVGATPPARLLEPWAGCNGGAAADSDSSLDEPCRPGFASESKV
measurementType: Ki (µM)

1) COc1ccccc1N1CCN(CCCNC(=O)NN(Cc2ccccc2)c2ccccc2)CC1	13

###

Organism: Homo sapiens
assayProcedure: Selectivity index, ratio of Ki for displacement of [3H] Spiperone from human D3 receptor expressed in CHO cells to Ki for displacement of [3H] Spiperone from human D4.4 receptor expressed in CHO cells
Assay type: cell-based
Recorded Ratio Ki by entry
measurementType: Ratio Ki

1) COc1ccccc1N1CCN(CCCNC(=O)NN(Cc2ccccc2F)c2ccc(F)cc2)CC1	44
2) COc1ccccc1N1CCN(CCCNC(=O)NN(Cc2ccccc2)c2ccc(Cl)cc2Cl)CC1	4
3) COc1ccccc1N1CCN(CCCNC(=O)NN(Cc2ccc(F)cc2)c2ccc(F)cc2)CC1	18
4) O=C(NCCCN1CCN(c2ccc(Br)cc2)CC1)NN(Cc1ccc(F)cc1)c1ccccc1	30
5) COc1ccc(N(Cc2ccccc2F)NC(=O)NCCCN2CCN(c3ccccc3OC)CC2)cc1	29
6) COc1ccccc1N1CCN(CCNC(=O)NN(Cc2ccccc2)c2ccc(F)cc2)CC1	78
7) COc1ccccc1N1CCN(CCCNC(=O)NN(Cc2ccc(F)cc2)c2ccccc2)CC1	560
8) O=C(NCCCN1CCN(c2ccc(Cl)cc2)CC1)NN(Cc1ccc(F)cc1)c1ccccc1	50
9) C=CCN(NC(=O)NCCCN1CCN(c2ccccc2OC)CC1)c1ccc(OC)cc1	11

###

targetDesc: D(4) dopamine receptor (Homo sapiens, UniProt P21917)
Sequence (P21917 whole entry): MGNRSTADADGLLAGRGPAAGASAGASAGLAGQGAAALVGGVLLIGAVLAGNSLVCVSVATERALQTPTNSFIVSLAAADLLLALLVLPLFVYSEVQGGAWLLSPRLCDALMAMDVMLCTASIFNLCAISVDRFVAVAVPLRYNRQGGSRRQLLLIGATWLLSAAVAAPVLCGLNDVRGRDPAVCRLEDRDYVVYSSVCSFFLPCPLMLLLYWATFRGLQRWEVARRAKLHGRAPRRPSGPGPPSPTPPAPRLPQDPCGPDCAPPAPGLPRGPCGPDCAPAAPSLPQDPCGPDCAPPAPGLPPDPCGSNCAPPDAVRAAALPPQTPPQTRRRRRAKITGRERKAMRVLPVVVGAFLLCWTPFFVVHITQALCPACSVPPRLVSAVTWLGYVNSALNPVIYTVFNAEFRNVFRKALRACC
assayProcedure: Antagonist activity at […] D4 receptor (unknown origin) expressed in HEK293 cells co-expressing beta-arrestin2 assessed as inhibition of quinpirole-induced beta-arrestin2 recruitment preincubated for 30 mins followed by quinpirole addition and further incubated for 6 hrs by Path-Hunter assay
Recorded IC50 by entry
measurementType: IC50 (nM)

1) COc1ccccc1N1CCN(CCCNC(=O)NN(Cc2ccc(F)cc2)c2ccccc2)CC1	620
2) COc1ccccc1N1CCN(CCCNC(=O)NN(Cc2ccccc2)c2ccc(F)cc2)CC1	49

###

Species: Homo sapiens
assayProcedure: Selectivity index, ratio of Ki for displacement of [3H] Spiperone from human D2S receptor expressed in CHO cells to Ki for displacement of [3H] Spiperone from human D4.4 receptor expressed in CHO cells
Format: cell-based
We use 10 as the dividing line for Ratio Ki: on or above the line is 1, below is 0.

1) O=C(NCCCN1CCN(c2ncccn2)CC1)NN(Cc1ccccc1)c1ccccc1	1
2) C=C(C)CN(NC(=O)NCCCN1CCN(c2ccccc2OC)CC1)c1ccc(OC)cc1	0
3) O=C(NCCCN1CCN(c2ccc(Br)cc2)CC1)NN(Cc1ccc(F)cc1)c1ccccc1	1
4) COc1ccc(N(Cc2ccc(F)cc2)NC(=O)NCCCN2CCN(c3ccccc3OC)CC2)cc1	1
5) COc1ccc(N(Cc2ccccc2F)NC(=O)NCCCN2CCN(c3ccccc3OC)CC2)cc1	0
6) O=C(NCCCN1CCN(c2ccc(Cl)cc2)CC1)NN(Cc1ccccc1)c1ccccc1	1
7) COc1ccccc1N1CCN(CCCNC(=O)NN(Cc2ccccc2)c2ccc(Cl)cc2)CC1	0
8) COc1ccccc1N1CCN(CCCNC(=O)NN(Cc2cccc(F)c2)c2ccc(F)cc2)CC1	1
9) COc1ccccc1N1CCN(CCCNC(=O)NN(Cc2ccccc2F)c2ccc(Br)cc2)CC1	0
10) O=C(NCCCN1CCN(c2ccc(I)cc2)CC1)NN(Cc1ccccc1)c1ccccc1	1
11) COc1ccccc1N1CCN(CCCNC(=O)NN(Cc2ccccc2F)c2ccc(F)cc2)CC1	1
12) COc1ccc(N(Cc2ccc(C#N)cc2)NC(=O)NCCCN2CCN(c3ccccc3OC)CC2)cc1	0
13) O=C(NCCCN1CCN(c2ccc(Cl)cc2)CC1)NN(Cc1ccc(F)cc1)c1ccccc1	1
14) COc1ccccc1N1CCN(CCCNC(=O)NN(Cc2ccccc2)c2ccc(F)cc2)CC1	0
15) COc1ccccc1N1CCN(CCCNC(=O)NN(Cc2ccc(-c3ccccc3)cc2)c2ccc(F)cc2)CC1	0
16) COc1ccccc1N1CCN(CCCNC(=O)NN(Cc2ccccc2)c2ccc(Cl)cc2Cl)CC1	0
17) COc1ccccc1N1CCN(CCCCNC(=O)NN(Cc2ccccc2)c2ccc(F)cc2)CC1	1
18) COc1ccccc1N1CCN(CCNC(=O)NN(Cc2ccccc2)c2ccc(F)cc2)CC1	0
